// values below are reported Inhibition
Test system: Staphylococcus aureus
condition: Concentration 32 ug.mL-1;; ASSAY_TEST Inhibition of Bacterial Growth; detection method Absorption (OD600); MEDIA CAMHB; plate type 384well; NBS; CORNING #3640; time 18 hr
Description: Antibacterial activity against Staphylococcus aureus MRSA ATCC 43300 (CO-ADD:GP_020); MIC in CAMBH media, using NBS plates, by OD(600)
Entries with a potency or affinity are not part of this list.
measured.parameter: Inhibition

compound.structure	result
CCc1nnc2c(S(=O)(=O)N(Cc3cccc(C)c3)c3ccc(C(C)C)cc3)cccn12	20.56%
COc1ccccc1N1CCN(C(=O)CSc2nc3ccccc3n3cnnc23)CC1	11.06%
COC(=O)c1sccc1NC(=O)CSc1nc2ccccc2n2c(C)nnc12	17.15%
COc1ccc(NC(=O)Cn2nc3cc(C)nc(Nc4ccc(F)c(C)c4)n3c2=O)cc1	-1.45%
COc1cccc(-n2ccn3c(SCc4ccccc4C)nnc3c2=O)c1	11%
Cc1ccc(CNC(=O)Cn2nc3c(Sc4cccc(F)c4)nccn3c2=O)cc1	-7.34%
COc1ccc(N(Cc2ccc(OC)c(F)c2)S(=O)(=O)c2ccc3nncn3c2)cc1	2.98%
CCOc1ccc(-n2ccn3c(SCC(=O)c4ccc(OC)cc4)nnc3c2=O)cc1	15.17%
CSc1cccc(NC(=O)Cn2nc3ccc(SC4CCCCC4)nn3c2=O)c1	-9.19%
N#CCn1nc2n(Cc3ccccc3)c(=O)c3ccc(C(=O)NC4CCCCC4)cc3n2c1=O	-2.91%
CCc1nnc2c(=O)n(CC(=O)Nc3ccc4c(c3)OCCO4)c3ccccc3n12	2.09%
Cc1ccc(CNC(=O)Cn2nc3c(SC4CCCCC4)nccn3c2=O)cc1	7.11%
COc1ccccc1CNC(=O)Cn1nc2c(N3CCCCCC3)nccn2c1=O	17.1%
O=C(CCc1nnc2c3cc(-c4ccccc4)nn3ccn12)N1CCN(C(=O)c2ccco2)CC1	7.4%
O=C(Cn1nc2c(Sc3cccc(F)c3)nccn2c1=O)Nc1ccc(F)c(Cl)c1	-0.79%
COc1ccc(CCn2c(=O)c3sccc3n3c(=O)n(Cc4ccccc4Cl)nc23)cc1OC	1.03%
Cc1cccc(N(C)C(=O)Cn2nc3cc(C)nc(Nc4ccc(F)c(C)c4)n3c2=O)c1	1.96%

====

Test system: Escherichia coli
condition: Concentration 32 ug.mL-1;; ASSAY_TEST Inhibition of Bacterial Growth; detection method Absorption (OD600); MEDIA CAMHB; plate type 384well; NBS; CORNING #3640; time 18 hr
Description: Antibacterial activity against Escherichia coli ATCC 25922 (CO-ADD:GN_001); MIC in CAMBH media using NBS plates, by OD(600)
Potency and affinity values are given separately.
measured.parameter: Inhibition (%)

compound	measured.parameter	endpoint.unit	measured.number
CCCCn1c(=O)c2sccc2n2c(=O)n(CC(=O)N3CCCC(C(=O)OCC)C3)nc12 (configuration not stated)	Inhibition	%	-5.26
Cc1ccc(NC(=O)Cn2nc3ccc(SC4CCCCC4)nn3c2=O)cc1C	Inhibition	%	-13.15
Cc1nnc2c(S(=O)(=O)N(Cc3ccccc3)c3ccc(C(C)C)cc3)cccn12	Inhibition	%	-2.4
CCc1ccccc1Sc1nccn2c(=O)n(CC(=O)Nc3cccc(C)c3)nc12	Inhibition	%	-6.79
CC(C)c1ccc(CNC(=O)CCc2nnc3c(N4CCCCC4)nc4ccccc4n23)cc1	Inhibition	%	-5.19
CC(C)c1nnc2c(=O)n(CC(=O)Nc3cccc(Cl)c3)c3ccccc3n12	Inhibition	%	-3.24
Cc1cccc(Oc2nccn3c(=O)n(CC(=O)Nc4ccccc4C(F)(F)F)nc23)c1C	Inhibition	%	3.1

====

System: Staphylococcus aureus
condition: Concentration 32 ug.mL-1;; ASSAY_TEST Inhibition of Bacterial Growth; detection method Absorption (OD600); MEDIA CAMHB; plate type 384well; NBS; CORNING #3640; time 18 hr
Entries with a potency or affinity are not part of this list.

compound.structure	Inhibition (%)
Cc1cccc(C)c1NC(=O)Cn1nc2c(Sc3cccc(F)c3)nccn2c1=O	9.75
CC(C)c1nnc2c(=O)n(CC(=O)Nc3cccc(Cl)c3)c3ccccc3n12	5.77
O=S(=O)(c1cccn2cnnc12)N(Cc1cccc(F)c1)c1cccc(Cl)c1	6.21
COc1cccc(NC(=O)Cn2nc3ccc(SCc4ccc(Cl)cc4)nn3c2=O)c1	-4.03
